Biological target: TrkB (Homo sapiens (Human), UniProt Q16620 32-430)
Sequence (Q16620 32-430 limits assumed): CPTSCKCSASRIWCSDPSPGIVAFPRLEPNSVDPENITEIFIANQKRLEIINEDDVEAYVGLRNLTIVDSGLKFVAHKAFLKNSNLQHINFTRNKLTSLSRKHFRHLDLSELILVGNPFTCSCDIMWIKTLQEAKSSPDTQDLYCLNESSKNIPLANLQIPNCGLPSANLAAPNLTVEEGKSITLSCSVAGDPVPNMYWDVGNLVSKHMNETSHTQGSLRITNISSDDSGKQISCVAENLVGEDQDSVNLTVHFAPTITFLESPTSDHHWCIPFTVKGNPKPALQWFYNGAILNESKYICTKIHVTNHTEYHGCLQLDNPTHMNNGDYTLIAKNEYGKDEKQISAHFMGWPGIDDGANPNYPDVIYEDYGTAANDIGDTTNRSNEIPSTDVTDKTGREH
Assay: koff of Fab at 25 C; T1/2=Log2/koff
RECORDED ENDPOINT: T1/2
Kindly format the answer as number then unit.

| BINDER | T1/2 |
| --- | --- |
| 13-C5 (Fab, V domains shown, Fab) VH: QVQLVQSGAEVKKPGASVKVSCKASGYTFTNYDIIWVRQAPGQGLEWMGYINPYNGRREYNEKFKGRVTMTRDTSTSTVYMELSSLRSEDTAVYYCARLLKYRRFRYYAIDYWGQGTTVTVSS VL: DIQMTQSPSSLSASVGDRVTITCRASEPVYSNLAWYQQKPGKAPKLLIYAASNLQSGVPSRFSGSGSGTDYTFTISSLQPEDIATYYCQHFWGSPFTFGQGTKLEIK | 13 min |
| 6-B11 (Fab, V domains shown, Fab) VH: QVQLVQSGAEVKKPGASVKVSCKASGYTFTNYVILWVRQAPGQGLEWMGYINPYNDGTKYNEKFKGRVTMTRDTSTSTVYMELSSLRSEDTAVYYCARLLKYRRFSYYAIDYWGQGTTVTVSS VL: DIQMTQSPSSLSASVGDRVTITCRASENVYSNLAWYQQKPGKAPKLLIYAASNLQSGVPSRFSGSGSGTDFTFTISSLQPEDIATYYCQHFWQSPFTFGQGTKLEIK | 1.44 min |
| 3-C12 (Fab, V domains shown, Fab) VH: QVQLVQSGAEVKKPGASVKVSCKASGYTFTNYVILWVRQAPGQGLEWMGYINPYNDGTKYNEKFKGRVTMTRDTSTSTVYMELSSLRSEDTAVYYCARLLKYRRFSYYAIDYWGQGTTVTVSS VL: DIQMTQSPSSLSASVGDRVTITCRASENVYSNLAWYQQKPGKAPKLLIYAASNLQSGVPSRFSGSGSGTDFTFTISSLQPEDIATYYCQHFWGSPFTFGQGTKLEIK | 0.84 min |
| 13-H6 (Fab, V domains shown, Fab) VH: QVQLVQSGAEVKKPGASVKVSCKASGYTFTNYDIIWVRQAPGQGLEWMGYINPYNDGRKENEKFKGRVTMTRDTSTSTVYMELSSLRSEDTAVYYCARLLKYRRFRYYAIDYWGQGTTVTVSS VL: DIQMTQSPSSLSASVGDRVTITCRASENVYSHLAWYQQKPGKAPKLLIYAASNLQSGVPSRFSGSGSGTDYTFTISSLQPEDIATYYCQHFVYSPFTFGQGTKLEIK | 13 min |

# next binder below
Enquiry: For 8-G2 (Fab, V domains shown, Fab) VH: QVQLVQSGAEVKKPGASVKVSCKASGYTFTNYVILWVRQAPGQGLEWMGYINPYNDGTKYNEKFKGRVTMTRDTSTSTVYMELSSLRSEDTAVYYCARLLKYRRFRFYAIDYWGQGTTVTVSS VL: DIQMTQSPSSLSASVGDRVTITCRASENVYSNLAWYQQKPGKAPKLLIYAASNLQSGVPSRFSGSGSGTDFTFTISSLQPEDIATYYCQHFGYSPFIFGQGTKLEIK , write its T1/2.
Return: 1.88 min
